test: blood and heart tissue levels in mice after intravenous and oral administration; assay type: in vivo; conditions: heart; mouse, oral 6 mg/kg, thirty minutes after administration; read-out: heart level
parameter: concentration at 0.5 h (ng/g)
Numbers only; they are read as ng/g.

Q: Using the record for C=CC[N+](C)(C)CCOc1c(Br)cc(N)cc1Br.[Br-] [Example 6] , report its concentration at 0.5 h.
A: 5100
